From: ChEMBL document CHEMBL4616717

# protocol_notes: Oral bioavailability in rat
# condition_notes: in vivo
value_type: bioavailability (%)
Value expressed in %; do not type the unit.

Param item = C[C@@H]1Cc2c([nH]c3ccccc23)[C@@H](c2c(F)cc(OC3CN(CCCF)C3)cc2F)N1CC(C)(C)F ; retrieve measured bioavailability.
31

====

The compounds listed here are annotated with their clearance.
# protocol_notes: Clearance in rat
# Assay type: ADME
# condition_notes: in vivo
Value expressed in mL/min/kg; do not type the unit.

>>> print(df.to_string())
                               given_smiles  experimental_value
0  CC1=C(c2cccc(O)c2)[C@H](c2ccc(OCCN3CC(CF)C3)cc2)Oc2ccc(O)cc21                  81

Please examine the following record next.
I am curious: what clearance value has been reported for C[C@@H]1Cc2c([nH]c3ccccc23)[C@@H](c2c(F)cc(OC3CN(CCCF)C3)cc2F)N1CC(C)(C)F ?
19

====

# experimental_target: Estrogen receptor (Homo sapiens)
# Sequence (P03372 whole entry): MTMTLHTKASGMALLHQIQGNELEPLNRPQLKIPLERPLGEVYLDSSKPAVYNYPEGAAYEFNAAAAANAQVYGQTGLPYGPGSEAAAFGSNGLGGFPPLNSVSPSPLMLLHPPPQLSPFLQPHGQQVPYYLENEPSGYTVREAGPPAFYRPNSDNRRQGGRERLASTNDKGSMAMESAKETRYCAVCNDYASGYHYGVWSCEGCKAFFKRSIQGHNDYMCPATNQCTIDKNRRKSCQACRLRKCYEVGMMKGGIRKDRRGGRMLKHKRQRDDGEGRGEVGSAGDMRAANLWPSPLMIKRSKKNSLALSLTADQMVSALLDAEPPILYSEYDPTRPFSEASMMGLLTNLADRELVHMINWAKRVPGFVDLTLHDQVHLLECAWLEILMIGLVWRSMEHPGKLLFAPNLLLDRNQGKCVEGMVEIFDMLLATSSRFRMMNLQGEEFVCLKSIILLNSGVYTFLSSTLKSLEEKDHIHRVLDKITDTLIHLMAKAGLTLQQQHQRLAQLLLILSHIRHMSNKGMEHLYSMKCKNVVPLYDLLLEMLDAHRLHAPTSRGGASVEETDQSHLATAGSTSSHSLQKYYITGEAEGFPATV
# protocol_notes: Induction of ERalpha degradation in human MCF7 cells after 4 hrs by FITC/Hoechst staining based immunofluorescence imaging analysis
value_type: pIC50
Remember the convention: pIC50 equals -log10 of concentration in molar.

Sample answers from the record:
                               given_smiles  value_type  experimental_value
0  C[C@@H]1Cc2c([nH]c3ccccc23)[C@@H](c2c(F)cc(OC3CN(C[C@H]4C[C@@H]4F)C3)cc2F)N1CC(C)(C)F       pIC50                9.26
1  C#CCN1CC(Oc2cc(F)c([C@@H]3c4[nH]c5ccccc5c4C[C@@H](C)N3CC(C)(C)F)c(F)c2)C1       pIC50               10.08
2  CC1CN(CCOc2cc(F)c([C@@H]3c4[nH]c5ccccc5c4C[C@@H](C)N3CC(C)(C)F)c(F)c2)C1       pIC50                9.72
3  C[C@@H]1Cc2c([nH]c3ccccc23)[C@@H](c2c(F)cc(OC3CN(CC4(CF)CC4)C3)cc2F)N1CC(C)(C)F       pIC50                9.28
4  C[C@@H]1Cc2c([nH]c3ccccc23)[C@@H](c2c(F)cc(OCCN3CC(F)(CF)C3)cc2F)N1CC(C)(C)F       pIC50                9.42
5  C=CCN1CC(Oc2cc(F)c([C@@H]3c4[nH]c5ccccc5c4C[C@@H](C)N3CC(C)(C)F)c(F)c2)C1       pIC50                9.82

Could you share which pIC50 value was measured for C[C@@H]1Cc2c([nH]c3ccccc23)[C@@H](c2c(F)cc(OC3CN(CCF)C3)cc2F)N1CC(C)(C)F ?
9.74

Fill in: pIC50 of C[C@@H]1Cc2c([nH]c3ccccc23)[C@@H](c2c(F)cc(OC3CN(CCCCF)C3)cc2F)N1CC(C)(C)F is ___
9.41

Request the reported pIC50 associated with C[C@@H]1Cc2c([nH]c3ccccc23)[C@@H](c2c(F)cc(OC3CN(C[C@H]4C[C@H]4F)C3)cc2F)N1CC(C)(C)F
9.25

====

# System: T47D
# protocol_notes: Antiproliferative activity against human T47D cells assessed as reduction in cell viability
# Type: functional, cell-based
value_type: IC50 (nM)
Use nM as the unit, but write only the number.

compound	value_type	readout_unit	experimental_value
CC1=C(c2cccc(O)c2)[C@H](c2ccc(OCCN3CC(CF)C3)cc2)Oc2ccc(O)cc21	IC50	nM	0.29
C[C@@H]1Cc2c([nH]c3ccccc23)[C@@H](c2c(F)cc(OC3CN(CCCF)C3)cc2F)N1CC(C)(C)F	IC50	nM	0.69
C[C@]12CC[C@@H]3c4ccc(O)cc4C[C@@H](CCCCCCCCC[S+]([O-])CCCC(F)(F)C(F)(F)F)[C@H]3[C@@H]1CC[C@@H]2O (some centres undefined) [FULVESTRANT]	IC50	nM	3

Could you now look at the following compound, please?
Which measured IC50 value corresponds to CC/C(=C(/c1ccc(/C=C/C(=O)O)cc1)c1ccc2[nH]ncc2c1)c1ccc(F)cc1Cl [BRILANESTRANT] ?
27

====

In this section, each of the molecules is paired with its reported bioavailability.
# protocol_notes: Oral bioavailability in cynomolgus monkey
# condition_notes: in vivo
Give your result in % as a bare value.

Give its bioavailability value. Item: CC1=C(c2cccc(O)c2)[C@H](c2ccc(OCCN3CC(CF)C3)cc2)Oc2ccc(O)cc21
5

So what's the measured bioavailability for this one? C[C@@H]1Cc2c([nH]c3ccccc23)[C@@H](c2c(F)cc(OC3CN(CCCF)C3)cc2F)N1CC(C)(C)F
28

====

# clearance values compiled below
# protocol_notes: Clearance in cynomolgus monkey
# Type: ADME, Macaca fascicularis
# condition_notes: in vivo
Expressed in mL/min/kg, but write only the number.

                               given_smiles  value_type  experimental_value
0  CC1=C(c2cccc(O)c2)[C@H](c2ccc(OCCN3CC(CF)C3)cc2)Oc2ccc(O)cc21   clearance                  17

Attention now turns to another entry.
Entry C[C@@H]1Cc2c([nH]c3ccccc23)[C@@H](c2c(F)cc(OC3CN(CCCF)C3)cc2F)N1CC(C)(C)F : reported clearance = ?
13
